# TEST: In vitro metabolism: disappearance of parent compound in monkey liver microsomes
# Assay type: in vitro ADME
# STATED_CONDITIONS: 5 uM compound, 30 minutes 37° C.
Monkey % rem. by entry:
ASSAY_METRIC: Monkey % rem.

COc1nc(NCCCN2CCCCC2)nc(OC)c1NC(=O)c1ccc(Cc2cc3c(cc2C)C(C)(C)OC3(C)C)o1 : 5%
CNc1nc(OC)c(NC(=O)c2ccc(Cc3cc4c(cc3C)C(C)(C)CCC4(C)C)o2)c(OC)n1 : 0%
COc1nc(NCCCCN(C)C)nc(OC)c1NC(=O)c1ccc(Cc2cc3c(cc2C)C(C)(C)OC3(C)C)o1 : 20%
COc1nc(N(C)C)nc(OC)c1NC(=O)c1ccc(Cc2cc3c(cc2C)C(C)(C)CCC3(C)C)o1 : 12%
COc1nc(NCCCN2CCOCC2)nc(OC)c1NC(=O)c1ccc(Cc2cc3c(cc2C)CCCC3(C)C)o1 : 0%
COc1nc(NCCCN2CCN(CCCN)CC2)nc(OC)c1NC(=O)c1ccc(Cc2cc3c(cc2C)C(C)(C)OC3(C)C)o1 : 80%
COc1nc(NCCN2CCCCC2)nc(OC)c1NC(=O)c1ccc(Cc2cc3c(cc2C)C(C)(C)OC3(C)C)o1 : 8%

* * *

# TEST: Pharmacokinetics in rats (jugular vein cannula, plasma LC-MS)
# Assay type: in vivo, Rat
# STATED_CONDITIONS: male, rat, plasma, po, 20 mg/kg, male rat; 20 mg/kg as 10 mg/ml in Labrasol/H2O 1/1 (footnote 2); read-out: MR Cmax
ASSAY_METRIC: Cmax

COc1nc(OCCO)nc(OC)c1NC(=O)c1ccc(Cc2cc3c(cc2C)C(C)(C)OC3(C)C)o1 : 3.2 µM

* * *

H S A column α by entry:
# STUDY_SYSTEM: H S A (Homo sapiens)
# Sequence (P02768 25-609): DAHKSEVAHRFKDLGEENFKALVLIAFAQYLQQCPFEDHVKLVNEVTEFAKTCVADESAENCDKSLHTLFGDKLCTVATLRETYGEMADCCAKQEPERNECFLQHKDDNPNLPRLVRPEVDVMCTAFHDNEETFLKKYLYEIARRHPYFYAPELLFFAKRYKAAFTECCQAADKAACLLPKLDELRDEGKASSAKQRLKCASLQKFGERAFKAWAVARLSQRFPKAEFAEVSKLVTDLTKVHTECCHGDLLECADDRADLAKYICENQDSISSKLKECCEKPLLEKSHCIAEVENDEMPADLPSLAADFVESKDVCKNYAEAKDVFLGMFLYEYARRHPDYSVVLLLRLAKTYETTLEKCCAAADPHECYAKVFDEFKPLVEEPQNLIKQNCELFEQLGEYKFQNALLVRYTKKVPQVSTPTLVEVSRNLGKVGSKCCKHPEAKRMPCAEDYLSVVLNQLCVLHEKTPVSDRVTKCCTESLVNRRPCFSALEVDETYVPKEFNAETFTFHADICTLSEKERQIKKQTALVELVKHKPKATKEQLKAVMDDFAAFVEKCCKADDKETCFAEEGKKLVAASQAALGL
# TEST: H S A column α
# Format: in vitro ADME
ASSAY_METRIC: H S A column α

CCN(CC)CCNc1nc(OC)c(NC(=O)c2ccc(Cc3cc4c(cc3C)C(C)(C)OC4(C)C)o2)c(OC)n1 : 2
COc1nc(OC)c(NC(=O)c2ccc(Cc3cc4c(cc3C)C(C)(C)OC4(C)C)o2)c(OC)n1 : 1
COc1nc(NCCN2CCCC2)nc(OC)c1NC(=O)c1ccc(Cc2cc3c(cc2C)C(C)(C)OC3(C)C)o1 : 2
COc1nc(Nc2ccccc2)nc(OC)c1NC(=O)c1ccc(Cc2cc3c(cc2C)C(C)(C)OC3(C)C)o1 [Example D1] : 8

* * *

Ki by entry:
# STUDY_SYSTEM: mouse GnRH receptors (Mus musculus)
# Construct: expressed in transfected cells; host or cells: HEK 293 cells, stably transfected; membranes
# Sequence (Q01776 1-327): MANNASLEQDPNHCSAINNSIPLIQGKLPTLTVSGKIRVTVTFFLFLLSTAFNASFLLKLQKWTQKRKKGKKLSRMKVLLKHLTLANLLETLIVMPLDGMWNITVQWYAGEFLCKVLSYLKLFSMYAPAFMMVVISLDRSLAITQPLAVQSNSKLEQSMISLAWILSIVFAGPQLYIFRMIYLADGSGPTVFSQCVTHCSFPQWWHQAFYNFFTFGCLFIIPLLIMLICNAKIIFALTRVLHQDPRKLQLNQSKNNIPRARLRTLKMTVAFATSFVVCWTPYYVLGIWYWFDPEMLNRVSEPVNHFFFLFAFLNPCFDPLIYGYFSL
# TEST: Radioligand binding: inhibition of 125I-GnRH-A binding to mouse GnRH receptor membranes
# STATED_CONDITIONS: HEK 293 cell membranes
ASSAY_METRIC: Ki (nM)

COc1nc(N2CCOCC2)nc(OC)c1NC(=O)c1ccc(Cc2cc3c(cc2C)C(C)(C)CCC3(C)C)o1 : 5.3
COc1nc(N(C)C)nc(OC)c1NC(=O)c1ccc(Cc2cc3c(cc2C)C(C)(C)CCC3(C)C)o1 : 3.4
COc1nc(NCCN2CCCC2)nc(OC)c1NC(=O)c1ccc(Cc2cc3c(cc2C)C(C)(C)OC3(C)C)o1 [Example D23, Acetate] : 1.7
COc1nc(OC)c(NC(=O)c2ccc(Cc3cc4c(cc3C)C(C)(C)OC4(C)C)o2)c(OC)n1 : 4.2
CNc1nc(OC)c(NC(=O)c2ccc(Cc3cc4c(cc3C)C(C)(C)CCC4(C)C)o2)c(OC)n1 : 0.75
COc1nc(OC)c(NC(=O)c2ccc(Cc3cc4c(cc3C)C(C)(C)CCC4(C)C)o2)c(OC)n1 : 0.42

* * *

Ki by entry:
# STUDY_SYSTEM: rat GnRH receptor (Rattus norvegicus)
# Construct: or rat pituitaries (Pel Freez Biologicals, Rogers, Ark.) were homogenized; tissue Pel Freez Biologicals; host or cells: rat pituitaries (membrane preparation)
# Sequence (P30969 whole entry): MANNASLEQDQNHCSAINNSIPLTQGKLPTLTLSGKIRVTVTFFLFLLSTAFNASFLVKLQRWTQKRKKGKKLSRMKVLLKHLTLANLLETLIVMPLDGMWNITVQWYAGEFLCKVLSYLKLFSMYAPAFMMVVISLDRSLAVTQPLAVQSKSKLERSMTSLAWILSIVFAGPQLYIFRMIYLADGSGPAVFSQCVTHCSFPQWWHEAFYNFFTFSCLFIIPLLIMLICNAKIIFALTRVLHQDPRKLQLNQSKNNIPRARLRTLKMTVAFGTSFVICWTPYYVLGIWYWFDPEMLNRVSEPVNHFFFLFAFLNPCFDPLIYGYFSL
# TEST: Radioligand binding: inhibition of 125I-GnRH-A binding to rat GnRH receptor (rat pituitary membranes)
# STATED_CONDITIONS: read-out: Ki (nM), Inhibition Binding of 125I-GnRH-A to GnRH Receptors
ASSAY_METRIC: Ki (nM)

COc1nc(N(CCCN2CCCCC2)CCCN2CCCCC2)nc(OC)c1NC(=O)c1ccc(Cc2cc3c(cc2C)C(C)(C)OC3(C)C)o1 : 1.3
COc1nc(NCCN2CCCC2)nc(OC)c1NC(=O)c1ccc(Cc2cc3c(cc2C)C(C)(C)OC3(C)C)o1 [Example D23, Acetate] : 0.92
COCCOc1nc(OC)c(NC(=O)c2ccc(Cc3cc4c(cc3C)CCCC4(C)C)o2)c(OC)n1 [Example E1] : 7
COc1nc(NCCCN2CCOCC2)nc(OC)c1NC(=O)c1ccc(Cc2cc3c(cc2C)C(C)(C)OC3(C)C)o1 : 0.4
COc1nc(NCC2(O)CCN(C)CC2)nc(OC)c1NC(=O)c1ccc(Cc2cc3c(cc2C)C(C)(C)OC3(C)C)o1 [Example D56, Acetate] : 14
COc1nc(NCc2ccc(N)cc2)nc(OC)c1NC(=O)c1ccc(Cc2cc3c(cc2C)C(C)(C)OC3(C)C)o1 : 3.4
COc1nc(NCCN2CCOCC2)nc(OC)c1NC(=O)c1ccc(Cc2cc3c(cc2C)C(C)(C)OC3(C)C)o1 : 4.1
COc1nc(NCCN(C)CCCCCO)nc(OC)c1NC(=O)c1ccc(Cc2cc3c(cc2C)C(C)(C)OC3(C)C)o1 : 3.1

* * *

# TEST: Solubility at pH2 and pH6
# Format: physicochemical
# STATED_CONDITIONS: pH 6, aqueous buffer, pH6; read-out: Solubility μg/ml pH6
solubility by entry:
ASSAY_METRIC: solubility

COc1nc(Nc2ccccc2)nc(OC)c1NC(=O)c1ccc(Cc2cc3c(cc2C)C(C)(C)OC3(C)C)o1 [Example D1] : > 15 µg/mL
COc1nc(OCCO)nc(OC)c1NC(=O)c1ccc(Cc2cc3c(cc2C)C(C)(C)OC3(C)C)o1 [Example A3] : > 15 µg/mL
COc1nc(OC)c(NC(=O)c2ccc(Cc3cc4c(cc3C)C(C)(C)OC4(C)C)o2)c(OC)n1 [Example A1] : > 12 µg/mL
COc1nc(NCCNCCN)nc(OC)c1NC(=O)c1ccc(Cc2cc3c(cc2C)C(C)(C)OC3(C)C)o1 [Example D12] : > 30 µg/mL
CNc1nc(OC)c(NC(=O)c2ccc(Cc3cc4c(cc3C)C(C)(C)CCC4(C)C)o2)c(OC)n1 [Example B1] : 0.4 µg/mL
COc1nc(NCCN2CCCC2)nc(OC)c1NC(=O)c1ccc(Cc2cc3c(cc2C)C(C)(C)OC3(C)C)o1 [Example D5] : > 30 µg/mL

* * *

Human % rem. 30′ by entry:
# TEST: In vitro metabolism: disappearance of parent compound in human liver microsomes
# Type: in vitro ADME
# STATED_CONDITIONS: 5 uM compound, 0.5 mg/ml protein, 2 mM NADPH, 30 minutes 37° C.
ASSAY_METRIC: Human % rem. 30′ (%)

COc1nc(N(C)C)nc(OC)c1NC(=O)c1ccc(Cc2cc3c(cc2C)C(C)(C)CCC3(C)C)o1 [Example B2] : 40
COc1nc(NCCCN(C)C)nc(OC)c1NC(=O)c1ccc(Cc2cc3c(cc2C)C(C)(C)OC3(C)C)o1 [Example D9] : 89
COc1nc(NCCN2CCCC2)nc(OC)c1NC(=O)c1ccc(Cc2cc3c(cc2C)C(C)(C)OC3(C)C)o1 [Example D5] : 80
COc1nc(OCCO)nc(OC)c1NC(=O)c1ccc(Cc2cc3c(cc2C)C(C)(C)OC3(C)C)o1 [Example A3] : 83
CCN(CC)CCNc1nc(OC)c(NC(=O)c2ccc(Cc3cc4c(cc3C)C(C)(C)OC4(C)C)o2)c(OC)n1 [Example D7] : 91
COc1nc(N(C)C)nc(OC)c1NC(=O)c1ccc(Cc2cc3c(cc2C)C(C)(C)OC3(C)C)o1 [Example D8] : 73
COc1nc(OC)c(NC(=O)c2ccc(Cc3cc4c(cc3C)C(C)(C)OC4(C)C)o2)c(OC)n1 [Example A1] : 60
COc1nc(NCCC#N)nc(OC)c1NC(=O)c1ccc(Cc2cc3c(cc2C)CCCC3(C)C)o1 [Example F2] : 70
COc1nc(NCCCN2CCCCC2)nc(OC)c1NC(=O)c1ccc(Cc2cc3c(cc2C)C(C)(C)OC3(C)C)o1 [Example D22] : 66
COc1nc(NCCN2CCCCC2)nc(OC)c1NC(=O)c1ccc(Cc2cc3c(cc2C)C(C)(C)OC3(C)C)o1 [Example D6] : 77

Measured values drawn from patent US6833372B2 for this set.
